- assay.system: Human factor D (Homo sapiens)
- Construct: Human factor D (purified from human serum, Complement Technology, Inc.)
- Sequence (P00746 26-253): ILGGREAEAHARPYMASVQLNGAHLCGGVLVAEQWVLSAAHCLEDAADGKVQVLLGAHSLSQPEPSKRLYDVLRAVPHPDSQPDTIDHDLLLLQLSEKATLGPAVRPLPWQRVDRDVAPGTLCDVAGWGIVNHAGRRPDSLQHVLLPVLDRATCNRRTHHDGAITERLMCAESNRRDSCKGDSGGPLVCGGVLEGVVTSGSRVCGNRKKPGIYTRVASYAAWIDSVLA
- protocol.text: Human Factor D Assay
- conditions: Human factor D 80 nM, substrate Z-L-Lys-SBzl, DTNB
- Procedure: The assay of Example 8 was used to determine the IC50's of the compounds. Other standard factor D inhibition assays are also available. Human factor D (purified from human serum, Complement Technology, Inc.) at 80 nM final concentration is incubated with test compound at various concentrations for 5 minutes at room temperature in 50 mM Tris, 1M NaCl, pH 7.5. A synthetic substrate Z-L-Lys-SBzl and DTNB (Ellman's reagent) are added to final concentrations of 100 μM each. […]
measurement.name: IC50

[Q] IC50 for CC(=O)c1cn(CC(=O)N2C[C@H](F)C[C@H]2C(=O)NCc2cccc(Cl)c2F)c2cc(OCc3cc4ccc3CCc3ccc(cc3)CC4)ccc12 [Compound 6] ?
[A] 1 to 10 µM
